SYSTEM NAME: δ opioid receptor (UniProt A0A286XTF2)
Type: binding
Parameters: unit μM
EXPERIMENTAL SETUP: read-out: Ki (nM ± S.E.) [^3H]Naltrindole (δ); radioligand [3H]Naltrindole
// returns Not fulfilled unless Ki is strictly below 100 nM, in which case Fulfilled

See these solved cases before continuing.
{"COMPOUND": "COc1ccc2c(c1O)[C@]13CCN(C)[C@H](C2)[C@@H]1C=CC(=O)C3 [Sample 7, 3-Methoxy-4-hydroxy-6-oxo-morphine]", "SYSTEM NAME": "δ opioid receptor (UniProt A0A286XTF2)", "CAT": "Not fulfilled"}
{"COMPOUND": "NC(=O)c1ccc2c(c1O)[C@]13CCN(CC4CC4)[C@H](C2)[C@]1(O)CCC(=O)C3 [Sample 3, 3-Carboxyamido-4-hydroxy-naltrexone]", "SYSTEM NAME": "δ opioid receptor (UniProt A0A286XTF2)", "CAT": "Fulfilled"}
{"COMPOUND": "NC(=S)c1ccc2c(c1O)[C@]13CCN(CC4CC4)[C@H](C2)[C@]1(O)CCC(=O)C3 [Sample 26, 3-Thiocarboxyamido-4-hydroxy-naltrexone]", "SYSTEM NAME": "δ opioid receptor (UniProt A0A286XTF2)", "CAT": "Not fulfilled"}
{"COMPOUND": "COc1ccc2c(c1O)[C@]13CCN(C)[C@H](C2)[C@@H]1CCC(=O)C3", "SYSTEM NAME": "δ opioid receptor (UniProt A0A286XTF2)", "CAT": "Not fulfilled"}

Let us examine a further case.
Below 100 nM on Ki? Entry NC(=O)c1ccc2c3c1O[C@H]1C(=O)CC[C@@]4(O)[C@@H](C2)N(CC2CC2)CC[C@]314 [Sample 2, 3-Carboxyamido-naltrexone]
Not fulfilled

====

SYSTEM NAME: μ opioid receptor (Homo sapiens, UniProt P35372)
Sequence (P35372 whole entry): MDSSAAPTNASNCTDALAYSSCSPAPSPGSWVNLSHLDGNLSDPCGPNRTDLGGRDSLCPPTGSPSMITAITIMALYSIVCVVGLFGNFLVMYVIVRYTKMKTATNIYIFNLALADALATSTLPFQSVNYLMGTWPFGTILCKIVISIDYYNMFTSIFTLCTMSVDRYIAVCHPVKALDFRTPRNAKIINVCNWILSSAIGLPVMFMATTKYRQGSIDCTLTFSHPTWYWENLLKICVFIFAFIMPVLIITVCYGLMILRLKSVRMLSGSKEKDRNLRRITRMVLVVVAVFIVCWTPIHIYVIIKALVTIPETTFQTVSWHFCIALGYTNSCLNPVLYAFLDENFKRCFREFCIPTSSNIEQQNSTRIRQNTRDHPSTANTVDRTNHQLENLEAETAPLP
Assay type: binding
EXPERIMENTAL SETUP: read-out: Ki (nM ± S.E.) [^3H]DAMGO (μ)
Recorded measurements of Ki, one per entry
Respond with the bare value in nM.

Query the reported Ki for μ opioid receptor (Homo sapiens, UniProt P35372); item: NC(=O)c1ccc2c3c1O[C@H]1C(=O)CC[C@@]4(O)[C@@H](C2)N(CC2CC2)CC[C@]314 [Sample 2, 3-Carboxyamido-naltrexone]
1.9

What reported Ki corresponds to NC(=O)c1ccc2c(c1O)[C@]13CCN(CC4CC4)[C@H](C2)[C@]1(O)CCC(=O)C3 [Sample 3, 3-Carboxyamido-4-hydroxy-naltrexone] on μ opioid receptor (Homo sapiens, UniProt P35372)?
0.052

====

SYSTEM NAME: δ opioid receptor (UniProt A0A286XTF2)
Type: binding
EXPERIMENTAL SETUP: read-out: Ki (nM ± S.E.) [^3H]Naltrindole (δ); radioligand [3H]Naltrindole
RECORDED ENDPOINT: Ki (nM)
Report only the number, with the unit nM understood.

State its Ki on δ opioid receptor (UniProt A0A286XTF2): NC(=O)c1ccc2c(c1O)[C@]13CCN(CC4CCC4)[C@H](C2)[C@]1(O)CCC(=O)C3 [Sample 21, 3-Carboxamido-4-hydroxy-6-oxo-nalbuphine]
4.2

====

SYSTEM NAME: δ opioid receptor (UniProt A0A286XTF2)
Format: binding
Parameters: unit μM
EXPERIMENTAL SETUP: read-out: Ki [^3H]Naltrindole (δ); radioligand [3H]Naltrindole; unit μM
RECORDED ENDPOINT: Ki

Item: COc1ccc2c(c1O)[C@]13CCN(CC4CC4)[C@H](C2)[C@]1(O)CCC(=O)C3 [Sample 4, 3-methoxy-4-hydroxy-naltrexone] Test system: δ opioid receptor (UniProt A0A286XTF2) Read-out: Ki Value: ?
> 10 µM

====

SYSTEM NAME: κ opioid receptor (UniProt P41144)
Construct: rows headed: Ki (nM ± S.E.) [^3H]U69,593 (κ); other: radioligand [3H]U69,593
Format: binding
EXPERIMENTAL SETUP: read-out: Ki (nM ± S.E.) [^3H]U69,593 (κ); radioligand [3H]U69,593
RECORDED ENDPOINT: Ki (nM)
Provide the reading as a plain figure in nM.

{"COMPOUND": "COc1ccc2c(c1O)[C@]13CCN(C)[C@H](C2)[C@@H]1CCC(=O)C3", "NUMERIC RESULT": 350}
{"COMPOUND": "NC(=S)c1ccc2c(c1O)[C@]13CCN(CC4CC4)[C@H](C2)[C@]1(O)CCC(=O)C3 [Sample 26, 3-Thiocarboxyamido-4-hydroxy-naltrexone]", "NUMERIC RESULT": 5}
{"COMPOUND": "COc1ccc2c(c1O)[C@]13CCN(CC4CC4)[C@H](C2)[C@]1(O)CCC(=O)C3 [Sample 4, 3-methoxy-4-hydroxy-naltrexone]", "NUMERIC RESULT": 12}
{"COMPOUND": "NC(=O)c1ccc2c(c1O)[C@]13CCN(CC4CCC4)[C@H](C2)[C@]1(O)CCC(=O)C3 [Sample 21, 3-Carboxamido-4-hydroxy-6-oxo-nalbuphine]", "NUMERIC RESULT": 0.27}

In the following, a different compound is considered.
Provide the documented Ki with κ opioid receptor (UniProt P41144) as the system for COc1ccc2c(c1O)[C@]13CCN(C)[C@H](C2)[C@@H]1C=CC(=O)C3 [Sample 7, 3-Methoxy-4-hydroxy-6-oxo-morphine]
740

====

Entries annotated with measured Ki
SYSTEM NAME: κ opioid receptor (UniProt P41144)
Construct: rows headed: Ki (nM ± S.E.) [^3H]U69,593 (κ); other: radioligand [3H]U69,593
Assay type: binding
EXPERIMENTAL SETUP: radioligand [3H]U69,593; read-out: Ki (nM ± S.E.) [^3H]U69,593 (κ)
Please state the figure in nM; there is no need to write the unit.

{"COMPOUND": "NC(=O)c1ccc2c3c1O[C@H]1C(=O)CC[C@@]4(O)[C@@H](C2)N(CC2CC2)CC[C@]314 [Sample 2, 3-Carboxyamido-naltrexone]", "SYSTEM NAME": "κ opioid receptor (UniProt P41144)", "RECORDED ENDPOINT": "Ki", "NUMERIC RESULT": 22}

Which Ki is reported with κ opioid receptor (UniProt P41144) for this entry: NC(=O)c1ccc2c(c1O)[C@]13CCN(CC4CC4)[C@H](C2)[C@]1(O)CCC(=O)C3 [Sample 3, 3-Carboxyamido-4-hydroxy-naltrexone] ?
0.23
